Quick reference: MIC99 of the listed items.
- System: Candida albicans
- method-notes: Antimicrobial activity against Candida albicans MTCC 227 assessed as growth inhibition by broth microdilution method
- Assay type: functional
readout-type: MIC99 (µg/mL)

molecule=COC1=CC(=O)C[C@@H](C)[C@]12Oc1c(Cl)c(OC)cc(OC)c1C2=O test_system="Candida albicans" readout_type=MIC99 relational_operator== endpoint_value=500
molecule=O=C1C(=O)N(CCCSC(=S)N2CCN(c3ccc(Cl)c(Cl)c3)CC2)c2ccc(Br)cc21 test_system="Candida albicans" readout_type=MIC99 relational_operator== endpoint_value=250
molecule=O=C1C(=O)N(CCSC(=S)N2CCN(c3ccc(Cl)c(Cl)c3)CC2)c2ccc(Cl)cc21 test_system="Candida albicans" readout_type=MIC99 relational_operator=> endpoint_value=1000
molecule=O=C1C(=O)N(CCCSC(=S)N2CCN(c3ccc(Cl)c(Cl)c3)CC2)c2ccc(Cl)cc21 test_system="Candida albicans" readout_type=MIC99 relational_operator== endpoint_value=500
molecule=O=C1C(=O)N(CCSC(=S)N2CCN(c3ccc(Cl)c(Cl)c3)CC2)c2ccc([N+](=O)[O-])cc21 test_system="Candida albicans" readout_type=MIC99 relational_operator== endpoint_value=100
molecule=S=C(SSC(=S)N1CCN(c2ccc(Cl)c(Cl)c2)CC1)N1CCN(c2ccc(Cl)c(Cl)c2)CC1 test_system="Candida albicans" readout_type=MIC99 relational_operator== endpoint_value=200
molecule=O=C1C(=O)N(CCSC(=S)N2CCN(c3ccc(Cl)c(Cl)c3)CC2)c2ccc(Br)cc21 test_system="Candida albicans" readout_type=MIC99 relational_operator== endpoint_value=200
molecule=O=C1C(=O)N(CCSC(=S)N2CCN(c3ccc(Cl)c(Cl)c3)CC2)c2ccc(F)cc21 test_system="Candida albicans" readout_type=MIC99 relational_operator== endpoint_value=100
molecule=O=C1C(=O)N(CCSC(=S)N2CCN(c3ccc(Cl)c(Cl)c3)CC2)c2ccccc21 test_system="Candida albicans" readout_type=MIC99 relational_operator=> endpoint_value=1000
molecule=O=C1C(=O)N(CCCSC(=S)N2CCN(c3ccc(Cl)c(Cl)c3)CC2)c2ccc([N+](=O)[O-])cc21 test_system="Candida albicans" readout_type=MIC99 relational_operator== endpoint_value=500
molecule=O=C1C(=O)N(CCCSC(=S)N2CCN(c3ccc(Cl)c(Cl)c3)CC2)c2ccc(F)cc21 test_system="Candida albicans" readout_type=MIC99 relational_operator== endpoint_value=500
molecule=O=C1C(=O)N(CCCSC(=S)N2CCN(c3ccc(Cl)c(Cl)c3)CC2)c2ccccc21 test_system="Candida albicans" readout_type=MIC99 relational_operator=> endpoint_value=1000

* * *

This section presents compounds with their documented MIC99 values.
- Tested on: Bacillus subtilis
- method-notes: Antimicrobial activity against Bacillus subtilis MTCC 441 assessed as growth inhibition by broth microdilution method
- Type: functional
readout-type: MIC99 (µg/mL)

molecule=O=C1C(=O)N(CCSC(=S)N2CCN(c3ccc(Cl)c(Cl)c3)CC2)c2ccccc21 test_system="Bacillus subtilis" readout_type=MIC99 endpoint_value=200
molecule=O=C1C(=O)N(CCSC(=S)N2CCN(c3ccc(Cl)c(Cl)c3)CC2)c2ccc([N+](=O)[O-])cc21 test_system="Bacillus subtilis" readout_type=MIC99 endpoint_value=100
molecule=O=C1C(=O)N(CCCSC(=S)N2CCN(c3ccc(Cl)c(Cl)c3)CC2)c2ccc(Br)cc21 test_system="Bacillus subtilis" readout_type=MIC99 endpoint_value=250
molecule=O=C1C(=O)N(CCSC(=S)N2CCN(c3ccc(Cl)c(Cl)c3)CC2)c2ccc(F)cc21 test_system="Bacillus subtilis" readout_type=MIC99 endpoint_value=200
molecule=O=C1C(=O)N(CCSC(=S)N2CCN(c3ccc(Cl)c(Cl)c3)CC2)c2ccc(Cl)cc21 test_system="Bacillus subtilis" readout_type=MIC99 endpoint_value=100

Data origin: ChEMBL document CHEMBL3044829
